target: UniProtKB P14902; test: Assessment of human IDO-1 inhibitory activity in HEK cells (human IDO1/HEK293 cells, kynurenine read-out with Ehrlich reagent, absorbance 490 nm); type: cell-based; set-up: expressed in transfected cells; conditions: HEK Human IDO-1 cellular assay
Measured Attribute: IC50

A selection of reference data follows.
CCOc1ccc(NC(=O)Nc2cc(C(COC)CC(=O)O)cc(F)c2N(CC(C)C)CC(C)C)c(F)c1 (single isomer, unassigned) [Example 1191] ... < 5 nM
CCOc1ncc(Nc2cc(C(CC)CC(=O)O)ccc2N2CCC[C@H]2C(C)(C)O)cn1 (single isomer, unassigned) [Example 823] ... < 50 nM

Here is another compound to look at.
Quick one: IC50 of CCN(c1ccc(C(CC(=O)O)c2ccccc2)cc1NC(=O)Nc1ccc(C)cc1)C1CCOCC1 (single isomer, unassigned) ?
> 50 nM

* * *

target: human IDO1 (Homo sapiens); test: Assessment of human IDO-1 inhibitory activity in HEK cells (human IDO1/HEK293 cells, kynurenine read-out with Ehrlich reagent, absorbance 490 nm); type: cell-based; parameters: expressed in transfected cells; conditions: HEK Human IDO-1 cellular assay
Measured Attribute: IC50

CC[C@@H](CC(=O)O)c1ccc(N(CC)C2CCOCC2)c(Nc2ccc(Cl)c(OC)c2)c1 (single isomer, unassigned) ... < 5 nM
CCC(CC(=O)O)c1ccc(N(CC2CC2)C2CCOCC2)c(Nc2cnc(OC)nc2)c1 (single isomer, unassigned) ... < 5 nM
CCN(c1ccc(C(CC(=O)O)c2ccccc2)cc1Nc1ccc(Cl)cc1)C1CCOCC1 (single isomer, unassigned) [Example 580] ... < 5 nM
COCC(CC(=O)O)c1ccc(N(CC(C)C)C2CCCCC2)c(NC(=O)Nc2ccc(C)cc2)c1 (racemic) [Example 988] ... < 5 nM
COCC(CC(=O)O)c1cc(F)c(N(CC(C)C)C2CCCCC2)c(NC(=O)Nc2ccc(Cl)cc2)c1 (single isomer, unassigned) ... < 5 nM

For the next question, use this molecule.
May I ask what IC50 has been recorded for CC[C@H](CC(=O)O)c1ccc(N2CCC[C@@H]2C(C)(C)O)c(Nc2cnc(OCC3CC3)nc2)c1 (single isomer, unassigned) ?
> 50 nM

* * *

molecular target: human IDO1 (Homo sapiens, UniProt P14902); assay: Assessment of human IDO-1 inhibitory activity in HEK cells (human IDO1/HEK293 cells, kynurenine read-out with Ehrlich reagent, absorbance 490 nm); assay type: cell-based; parameters: expressed in transfected cells; conditions: HEK Human IDO-1 cellular assay
Sequence (P14902 whole entry): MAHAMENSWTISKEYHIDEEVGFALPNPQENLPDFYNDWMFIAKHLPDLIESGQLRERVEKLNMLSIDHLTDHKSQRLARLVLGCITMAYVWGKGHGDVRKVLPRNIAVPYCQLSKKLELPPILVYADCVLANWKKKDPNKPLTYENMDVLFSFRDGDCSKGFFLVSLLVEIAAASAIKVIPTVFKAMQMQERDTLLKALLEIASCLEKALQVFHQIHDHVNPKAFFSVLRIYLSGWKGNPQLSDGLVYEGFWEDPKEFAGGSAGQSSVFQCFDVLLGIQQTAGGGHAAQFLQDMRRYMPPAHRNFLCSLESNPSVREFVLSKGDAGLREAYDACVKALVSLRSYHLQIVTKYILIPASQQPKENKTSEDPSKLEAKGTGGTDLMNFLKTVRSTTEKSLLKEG
Measured Attribute: IC50

Cc1ccc(CC(=O)Nc2cc(C(C)CC(=O)O)ccc2N(CC(C)C)CC(C)C)cc1 (single isomer, unassigned) [Example 953] ... > 50 nM
CC[C@@H](CC(=O)O)c1ccc(N2CCOC[C@@H]2C(C)C)c(NC(=O)Nc2ccc(C)cc2)c1 (single isomer, unassigned) ... > 50 nM
CC(C)(CC(=O)O)c1ccc(N2CCC[C@H]2C(C)(C)O)c(Nc2ccc(F)cc2)c1 ... > 50 nM

Please look up its IC50: CCN(c1ccc(C(C)CC(=O)O)cc1NC(=O)Nc1ccc(Cl)cc1F)C1CCOCC1 (single isomer, unassigned) [Example 637 E1]
< 5 nM

* * *

Hi there, I'd appreciate the recorded pIC50 for every entry that follows.
biological target: human IDO1 (Homo sapiens); assay: Assessment of human IDO-1 inhibitory activity in Hela cells (Interferon-gamma stimulated HeLa cells, Ehrlich reagent, absorbance 490 nm); type: cell-based; parameters: endogenous in cells; host or cells: HeLa cells stimulated with interferon-gamma; details: Hela Human IDO-1 cellular assay
pIC50: −log10 of the molar value.

CCC1COCCN1c1ccc([C@@H](COC)CC(=O)O)cc1Nc1ccc(C#N)cc1 (single isomer, unassigned) [Example 1295] ... > 7.30

Would you be so kind as to report pIC50 for each listed record?
1. CCOc1ncc(Nc2cc(C(COC)CC(=O)O)ccc2N2CCOC[C@H]2C(C)C)cn1 (single isomer, unassigned) [Example 914]
2. COCC(CC(=O)O)c1ccc(N2CCC(c3ccccc3)CC2)c(NC(=O)Nc2ccc(Cl)cc2F)c1 (single isomer, unassigned) [Example 1357 E2]

1: < 7.30; 2: > 7.30

Give one value of pIC50 per listed compound.
1. CCOc1ncc(Nc2cc([C@H](CC)CNS(=O)(=O)c3c(C)noc3C)ccc2N(CC)C2CCOCC2)cn1 [Example 1328]
2. COCC(CC(=O)O)c1ccc(N2CCOC(C)C2)c(NC(=O)Nc2ccc(Cl)cc2F)c1 (single isomer, unassigned) [Example 1314 D1]

< 7.30
< 7.30
